Source listed as patent US7056679.

Biological target: T1, DGI-2 polypeptide (UniProt Q15004 1-111, limits assumed)
T1 construct: Soluble recombinant protein coated at 500 ng/well; vector tag of pIVEX2.3-MCS not described for this construct; also called KIAA0101
T1 sequence (looked up): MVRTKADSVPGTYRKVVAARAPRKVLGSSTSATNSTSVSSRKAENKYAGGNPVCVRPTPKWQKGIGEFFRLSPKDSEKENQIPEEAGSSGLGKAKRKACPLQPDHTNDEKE
Assay: phage ELISA
quantity: DGI-2/LDH (ratio)
# value in ratio; strip the unit string

GGSLPVKSGQLVTCCTSKGGAAAGAPVPYPDPLEPRP [DGI-2-20F-PP-F5]
2.5

Problem: Which DGI-2/LDH value is on record for SIILAGCVWVMPCGQNLGGVAAAGAPVPYPDPLEPRP [DGI-2-20F-PP-C4] ?
Result: 3.2

Problem: Which DGI-2/LDH value is on record for EGQRVVFLFGALVAGLCWRDRAAAGAPVPYPDPLEPRP [DGI-2-20F-PP-F3] ?
Result: 2.2

Problem: Which DGI-2/LDH value is on record for VTGTRFRGFAVACVRMGTWHAAAGAPVPYPDPLEPRP [DGI-2-20F-PP-F2] ?
Result: 2.5

Problem: Which DGI-2/LDH value is on record for YTPASILTGFQRGYEGAGNGAAAGAPVPYPDPLEPRP [DGI-2-20R-4-G7] ?
Result: 3.9

Problem: Which DGI-2/LDH value is on record for VLQRSLWKDWVDGVMHGGGSRGVAAAGAPVPYPDPLEPRP [DGI-2-20R-3-A7] ?
Result: 5.1

Problem: Which DGI-2/LDH value is on record for WVVALRRIRLGLRRGVECLLAAAGAPVPYPDPLEPRP [DGI-2-20F-PP-D5] ?
Result: 2.3

Problem: Which DGI-2/LDH value is on record for GLYQRGLAPRCRGERFGVRNAAAGAPVPYPDPLEPRP [DGI-2-20F-PP-C2] ?
Result: 2.5
